The reported numbers originate from the Immune Epitope Database (IEDB).

STUDY SYSTEM: HLA-B*07:02
ASSAY PROCEDURE: IEDB peptide-MHC binding, purified MHC/direct/fluorescence; filed as Kd, often an IC50 or EC50 that approximates it; bounds were set here for any values at or beyond the usual limits of such assays
CONDITION LABEL: source organism: Human immunodeficiency virus type 2 (ISOLATE D205,7)
OBSERVATION TYPE: Kd

Kd lookup needed for `NPVPVGNIY` , thanks. ≥ 40.3 µM

====

STUDY SYSTEM: HLA-B*46:01
ASSAY PROCEDURE: IEDB peptide-MHC binding, purified MHC/direct/fluorescence; filed as Kd, often an IC50 or EC50 that approximates it; bounds were set here for any values at or beyond the usual limits of such assays
CONDITION LABEL: source organism: Giardia lamblia ATCC 50803
pKd: −log10 of the molar value.
OBSERVATION TYPE: pKd

QLKQRDALF | ≤ 4.70

// next entry
pKd lookup needed for `LERIKANIF` , thanks. ≤ 4.70
